All values here come from patent US20250368666A1.

A collection of compounds and their measured Kd
TEST_TARGET: FGFR3 (Homo sapiens, UniProt P22607)
Construct: made in house; host or cells: E. coli (BL21-derived), T7 phage
Sequence (P22607 23-806): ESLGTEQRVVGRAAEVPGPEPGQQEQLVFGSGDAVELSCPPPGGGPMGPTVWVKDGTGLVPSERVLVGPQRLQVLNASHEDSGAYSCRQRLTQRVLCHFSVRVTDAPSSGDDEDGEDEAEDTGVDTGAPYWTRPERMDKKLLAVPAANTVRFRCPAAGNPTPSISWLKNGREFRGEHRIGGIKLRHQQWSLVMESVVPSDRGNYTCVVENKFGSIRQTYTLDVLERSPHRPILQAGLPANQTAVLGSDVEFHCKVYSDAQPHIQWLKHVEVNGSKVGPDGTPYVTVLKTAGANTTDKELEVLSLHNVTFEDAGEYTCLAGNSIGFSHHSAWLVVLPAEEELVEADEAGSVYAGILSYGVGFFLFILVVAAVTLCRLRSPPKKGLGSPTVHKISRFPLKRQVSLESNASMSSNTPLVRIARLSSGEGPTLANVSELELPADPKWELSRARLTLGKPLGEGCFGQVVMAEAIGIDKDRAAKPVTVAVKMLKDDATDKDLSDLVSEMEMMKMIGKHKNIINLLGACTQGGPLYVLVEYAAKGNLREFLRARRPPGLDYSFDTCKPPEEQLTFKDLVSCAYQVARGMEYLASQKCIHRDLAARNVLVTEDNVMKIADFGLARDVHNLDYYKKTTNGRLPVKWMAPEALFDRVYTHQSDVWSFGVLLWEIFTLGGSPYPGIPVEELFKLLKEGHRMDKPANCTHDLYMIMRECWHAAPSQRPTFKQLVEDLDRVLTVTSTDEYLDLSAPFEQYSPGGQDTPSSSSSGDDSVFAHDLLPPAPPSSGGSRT
EXPERIMENT_SUMMARY: Kinase binding assay (kinase-tagged T7 phage, affinity beads, qPCR), Kd
DETAILS: read-out: FGFR3 (Kd nM)

C[C@@H](Oc1ccc2[nH]nc(-c3ccc(N4CC(C)(NCC(C)(C)O)C4)nc3)c2c1)c1c(Cl)cncc1Cl; 1 to 50 nM
C[C@@H](Oc1ccc2[nH]nc(-c3cnc(N4CC(C)(CP(C)(C)=O)C4)c(C#N)c3)c2c1F)c1c(Cl)cncc1Cl; > 1000 nM

Alright, here's another compound for you.
Entry C[C@@H](Oc1ccc2[nH]nc(-c3ccc(N4CC(N)(Cc5cnn(C)c5)C4)nn3)c2c1)c1c(Cl)cncc1Cl ; Kd = 1 to 50 nM
